Measured values drawn from PubChem BioAssay AID1259341 for this set.

# Target: Caspase recruitment domain-containing protein 9 (Homo sapiens) + E3 ubiquitin-protein ligase TRIM62 (Homo sapiens) (UniProt Q9H257+Q9BVG3)
# Sequence (Q9BVG3 whole entry, looked up, the tested form may be a part): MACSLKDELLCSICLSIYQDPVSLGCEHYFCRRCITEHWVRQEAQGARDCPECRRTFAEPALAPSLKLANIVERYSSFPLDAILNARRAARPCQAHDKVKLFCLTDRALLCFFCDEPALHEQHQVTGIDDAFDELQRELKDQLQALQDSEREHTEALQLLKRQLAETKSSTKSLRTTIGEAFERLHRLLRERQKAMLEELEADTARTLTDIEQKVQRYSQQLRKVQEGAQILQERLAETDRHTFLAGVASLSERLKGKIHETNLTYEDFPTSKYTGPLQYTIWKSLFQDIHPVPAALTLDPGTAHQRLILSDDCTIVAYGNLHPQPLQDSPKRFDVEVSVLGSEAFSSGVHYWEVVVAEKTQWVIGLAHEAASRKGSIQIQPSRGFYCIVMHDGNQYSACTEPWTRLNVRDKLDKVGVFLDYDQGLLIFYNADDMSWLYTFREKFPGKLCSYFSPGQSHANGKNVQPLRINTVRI
# Sequence (Q9H257 whole entry, looked up, the tested form may be a part): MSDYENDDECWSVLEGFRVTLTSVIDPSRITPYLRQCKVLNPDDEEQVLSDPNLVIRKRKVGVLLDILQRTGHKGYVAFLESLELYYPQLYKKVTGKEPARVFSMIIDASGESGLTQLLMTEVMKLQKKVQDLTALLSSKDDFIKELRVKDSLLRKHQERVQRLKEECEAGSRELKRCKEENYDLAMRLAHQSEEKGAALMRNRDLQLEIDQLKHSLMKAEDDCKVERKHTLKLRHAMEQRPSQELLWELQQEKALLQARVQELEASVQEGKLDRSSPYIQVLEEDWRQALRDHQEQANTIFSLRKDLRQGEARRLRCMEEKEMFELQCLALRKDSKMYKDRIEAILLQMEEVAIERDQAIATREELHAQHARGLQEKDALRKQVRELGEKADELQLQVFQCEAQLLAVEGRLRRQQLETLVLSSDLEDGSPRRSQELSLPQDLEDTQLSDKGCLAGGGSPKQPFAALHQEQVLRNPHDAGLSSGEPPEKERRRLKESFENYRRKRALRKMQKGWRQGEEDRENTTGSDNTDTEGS
# Test Method Notes: disruptors of CARD9-TRIM62 binding, primary screen, cell lysate, HEK293FT lysates, Luminex bead ELISA (AID 1259341);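 note: PE anti-Flag signal of Flag-CARD9 captured by myc-TRIM62 beads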
# Measurement Conditions: PE fluorescence, stronger effect = lower value, concentration not given here
Observed Property: activity change, negative = inhibition (%)
Supply the numeric figure in %, leaving out any unit text.

Just so you know, measured activity change, negative = inhibition for O=C(COC(=O)c1cc(-c2ccco2)nc2ccccc12)NCc1ccc2c(c1)OCO2 came out at 3.18

Just so you know, measured activity change, negative = inhibition for O=C(Nc1nc(-c2ccccn2)cs1)c1cccc(-n2cnnn2)c1 came out at 199

Just so you know, measured activity change, negative = inhibition for CCc1oc2ccccc2c1C(=O)CCN1CCCCC1 came out at 2.4

Just so you know, measured activity change, negative = inhibition for Cc1ccc(S(=O)(=O)Nc2ccc3c(c2)C(=O)N([C@H](C)CO)C[C@H](C)[C@@H](CN(C)C(=O)C2CCCCC2)OCCCC[C@H](C)O3)cc1 came out at 6.06

Just so you know, measured activity change, negative = inhibition for O=C(Cn1c(=O)cc(C(=O)N2CCc3ccccc3C2)c2ccccc21)NCc1ccc2c(c1)OCO2 came out at -5.84

Just so you know, measured activity change, negative = inhibition for Cc1sc2ncnc(SCc3ccco3)c2c1C came out at -1.85

Just so you know, measured activity change, negative = inhibition for Cc1ccc(Cc2cnc(N)s2)o1 came out at 18.6

Just so you know, measured activity change, negative = inhibition for Cc1noc(C)c1S(=O)(=O)Nc1ccc2c(c1)C(=O)N([C@H](C)CO)C[C@H](C)[C@@H](CN(C)C(=O)C1CCCCC1)OCCCC[C@H](C)O2 came out at 7.66

Just so you know, measured activity change, negative = inhibition for CCCN1CCCn2nc(CNC(=O)[C@H]3CC[C@@H](N)C3)cc2C1 came out at -7.32

Just so you know, measured activity change, negative = inhibition for Fc1ccc(CSc2nnc(-c3cccnc3)n2Cc2ccco2)cc1 came out at 0.116

Just so you know, measured activity change, negative = inhibition for O=C(CCc1nc(-c2ccccc2)no1)NCC1CNCCOC1 (configuration not stated) came out at 18.6

Just so you know, measured activity change, negative = inhibition for CC(C)(C)c1ccc(-c2nc(C#N)c(NCc3ccncc3)o2)cc1 came out at 6.53

Just so you know, measured activity change, negative = inhibition for CCOc1ccc(-n2c3nc4ccccc4nc3c3c(=O)n(Cc4ccco4)cnc32)cc1 came out at 6.8

Just so you know, measured activity change, negative = inhibition for O=C(COC(=O)c1ccc(F)cc1F)Nc1ncccn1 came out at -18.2

Just so you know, measured activity change, negative = inhibition for Nc1ccc(-c2cccc(CN3CCCC3)c2)cc1 came out at -3.56

Just so you know, measured activity change, negative = inhibition for O=S(=O)(c1ccccc1)N1CC2CN(Cc3ccc(O)cc3)C2C1 (configuration not stated) came out at -21

Just so you know, measured activity change, negative = inhibition for COc1ccc(-c2nnc(-c3nc(Nc4ccc(NC(C)=O)cc4)c4ccccc4n3)o2)cc1 came out at 9.87

Just so you know, measured activity change, negative = inhibition for O=C(COC(=O)c1cc(-c2ccco2)nc2ccccc12)NCc1ccccc1 came out at -1.75

Just so you know, measured activity change, negative = inhibition for O=C(CC1Nc2ccccc2OC1=O)Nc1ccc(Cl)cc1 (configuration not stated) came out at 13.8

Just so you know, measured activity change, negative = inhibition for O=C1CS/C(=N\N=C\c2ccco2)N1c1ccccc1 came out at -3.42

Just so you know, measured activity change, negative = inhibition for NC(=O)C1(N2CCCCC2)CCN(c2ccc(NC(=O)c3ccccc3F)cc2C(=O)O)CC1 came out at -30

Just so you know, measured activity change, negative = inhibition for O=C(O)Cc1c[nH]c2cccc(O)c12 came out at 0.751
